- TEST_TARGET: Peroxisome proliferator-activated receptor gamma (Mus musculus)
- Sequence (P37238 whole entry, the tested form may be a part): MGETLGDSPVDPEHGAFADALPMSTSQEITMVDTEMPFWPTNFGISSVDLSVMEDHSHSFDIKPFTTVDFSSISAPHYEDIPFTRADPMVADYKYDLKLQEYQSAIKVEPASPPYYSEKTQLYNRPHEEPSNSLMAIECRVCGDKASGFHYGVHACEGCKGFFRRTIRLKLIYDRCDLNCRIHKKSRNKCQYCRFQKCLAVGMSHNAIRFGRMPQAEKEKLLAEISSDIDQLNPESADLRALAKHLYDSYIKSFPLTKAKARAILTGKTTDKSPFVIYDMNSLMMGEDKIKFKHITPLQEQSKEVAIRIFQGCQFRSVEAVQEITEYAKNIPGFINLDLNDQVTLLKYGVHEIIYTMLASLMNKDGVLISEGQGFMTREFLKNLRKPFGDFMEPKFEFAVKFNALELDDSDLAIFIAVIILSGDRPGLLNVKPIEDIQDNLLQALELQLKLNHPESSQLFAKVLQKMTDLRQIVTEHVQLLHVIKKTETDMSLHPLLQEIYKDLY
- RUN_DESCRIPTION: Agonist activity at mouse PPARgamma expressed in HEK293 cells co-expressing with Gal4 reporter vector after 24 hrs by dual-luciferase reporter assay
Exercise: state measured EC50 for each of the compounds provided.

Measured EC50 of `O=c1cc(-c2ccc(O)cc2)oc2cc(O)cc(O)c12` : 24.9 µM

Measured EC50 of COc1c(O[C@@H]2O[C@H](CO)[C@@H](O)[C@H](O)[C@H]2O)cc2oc(-c3ccc(O)cc3)cc(=O)c2c1O [HISPIDULOSIDE] : > 100 µM

Measured EC50 of `COc1ccc(-c2cc(=O)c3c(O)c(OC)c(O)c(OC)c3o2)cc1O` : 4.3 µM

Measured EC50 of `C=C1[C@@H](CC/C(C)=C/CO)[C@@]2(C)CCC[C@](C)(C(=O)O)[C@@H]2[C@H](OC(=O)c2ccccc2)[C@H]1OC(C)=O` : 0.9 µM

Measured EC50 of `O=c1cc(-c2ccc(O)cc2)oc2cc(O)c(O)c(O)c12` : 16.4 µM

Measured EC50 of `COc1ccc(-c2cc(=O)c3c(O)c(OC)c(O[C@@H]4O[C@H](CO[C@@H]5O[C@@H](C)[C@H](O)[C@@H](O)[C@H]5O)[C@@H](O)[C@H](O)[C@H]4O)cc3o2)cc1` : > 100 µM

Measured EC50 of `O=c1cc(-c2ccc(O)c(O)c2)oc2cc(O)cc(O)c12` : 2.3 µM

Measured EC50 of C[C@@]12CC[C@]3(C1)[C@H](CC2=O)C[C@@H](OC(=O)c1ccccc1)[C@@H]1[C@]3(C)CCC[C@]1(C)C(=O)O [4-EPI-SCOPADULCIC ACID B] : > 100 µM

Measured EC50 of `C=C(C)[C@@H]1CC[C@]2(C(=O)O)CC[C@]3(C)[C@H](CC[C@@H]4[C@@]5(C)CC[C@H](O)C(C)(C)[C@@H]5CC[C@]43C)[C@@H]12` : > 100 µM

Measured EC50 of `O=c1cc(-c2ccc(O)cc2)oc2c([C@@H]3OC[C@H](O)[C@H](O)[C@H]3O)c(O)cc(O)c12` : > 100 µM

Measured EC50 of `COc1c(O)cc2oc(-c3ccc(O)cc3)cc(=O)c2c1O` : 7.3 µM

Measured EC50 of `C=C1C[C@@H](OC(=O)c2ccccc2)[C@@H]2[C@](C)(CCC[C@@]2(C)C(=O)O)[C@@H]1CC/C(C)=C/CO` : > 100 µM

Measured EC50 of `C=C1[C@@H](CC/C(C)=C/CO)[C@@]2(C)CCC[C@](C)(C(=O)O)[C@@H]2[C@H](OC(=O)c2ccccc2)[C@H]1O` : > 100 µM

Measured EC50 of `COc1ccc(-c2oc3cc(O)cc(O)c3c(=O)c2O[C@@H]2O[C@H](COC(=O)/C=C/c3ccc(O)cc3)[C@@H](O)[C@H](O)[C@H]2O)cc1OC` : > 100 µM

Measured EC50 of `CC(=O)O[C@@H]1[C@@H](OC(=O)c2ccccc2)[C@@H]2[C@](C)(CCC[C@@]2(C)C(=O)O)[C@H](CC/C(C)=C/CO)[C@@]12CO2` : > 100 µM

----------
Exercise: state measured Emax for each of the compounds provided.
- TEST_TARGET: Peroxisome proliferator-activated receptor gamma (Mus musculus)
- RUN_DESCRIPTION: Agonist activity at mouse PPARgamma expressed in HEK293 cells co-expressing with Gal4 reporter vector assessed as fold activation after 24 hrs by dual-luciferase reporter assay
- Type: cell-based
Lab note: record just the number, no unit beside it.

Measured Emax of CN(CCOc1ccc(CC2SC(=O)NC2=O)cc1)c1ccccn1 (configuration not stated) : 11.8

Measured Emax of `COc1ccc(-c2cc(=O)c3c(O)c(OC)c(O)c(OC)c3o2)cc1O` : 2

Measured Emax of `O=c1cc(-c2ccc(O)cc2)oc2cc(O)c(O)c(O)c12` : 3.4

Measured Emax of `O=c1cc(-c2ccc(O)c(O)c2)oc2cc(O)cc(O)c12` : 7.6

Measured Emax of `COc1c(O)cc2oc(-c3ccc(O)cc3)cc(=O)c2c1O` : 11.3

Measured Emax of `C=C1[C@@H](CC/C(C)=C/CO)[C@@]2(C)CCC[C@](C)(C(=O)O)[C@@H]2[C@H](OC(=O)c2ccccc2)[C@H]1OC(C)=O` : 24.7

Measured Emax of `O=c1cc(-c2ccc(O)cc2)oc2cc(O)cc(O)c12` : 3.4
